Test system: U2OS
method description: cell viability relative to DMSO; higher = less toxic
condition details: 72 h; 10 nM
Consider the following compounds and their measured cell viability readings.
Reply with just the number (in %).

[Q] Which cell viability value belongs to `Cc1c(CC(C)(C)C(=O)O)n(Cc2ccc(Cl)cc2)c2ccc(F)cc12` ?
[A] 99.4

[Q] Form field: reported cell viability of `O=C(O)c1cc2ccccc2s1`
[A] 105

[Q] Which cell viability value is on record for `COc1ccc([C@@H]2CC(=O)c3c(O)cc(O[C@@H]4O[C@H](CO[C@@H]5O[C@@H](C)[C@H](O)[C@@H](O)[C@H]5O)[C@@H](O)[C@H](O)[C@H]4O)cc3O2)cc1O` ?
[A] 97.9

We now examine a further compound.
[Q] So what's the measured cell viability for this one? `CN1CCN(c2c(F)cc3c(=O)c(C(=O)O)cn4c3c2SCC4)CC1`
[A] 100

---

Tested on: U2OS
method description: drug sensitivity score (DSS) for viability; higher = more toxic; extreme values may be limits of the assay
condition details: 72 h
// drug sensitivity score lookup, one value per entry
Answer with a bare number; do not write a unit.

[Q] Please look up its drug sensitivity score: CC[C@H](NC(=O)c1c(O)c(-c2ccccc2)nc2ccccc12)c1ccccc1 [talnetant]
[A] 0

Further cases:
[Q] Which drug sensitivity score is listed for C=CCNc1ncnc2ccc(Br)cc12 [SMER-28] ?
[A] 0

[Q] Looking for the measured drug sensitivity score of NC(=O)c1ccc(-c2nc(-c3ccc4c(c3)OCCO4)c(-c3ccccn3)[nH]2)cc1 [D-4476] , can you help?
[A] 0

[Q] Please report the recorded drug sensitivity score for CCc1cc(Cl)c(OC)c(C(=O)NC[C@@H]2CCCN2CC)c1O [eticlopride] .
[A] 0

[Q] Look up drug sensitivity score for this molecule: CC(=O)OCC(=O)[C@@]1(O)CC[C@H]2[C@@H]3CCC4=CC(=O)C=C[C@]4(C)[C@@]3(F)[C@@H](O)C[C@@]21C [isoflupredone-acetate]
[A] 0

[Q] // lookup drug sensitivity score for CCCCCCCCCCOc1cc2c(O)c(C(=O)OCC)cnc2cc1OCC [decoquinate]
[A] 0

[Q] What drug sensitivity score value was documented for this molecule, CN1Cc2c(C(=O)OC(C)(C)C)ncn2-c2ccsc2C1=O [Ro-19-4605] ?
[A] 0

[Q] # lookup: drug sensitivity score of NCC(=O)N[C@@H](CCC(N)=O)C(=O)O [gly-gln]
[A] 0

[Q] For `COc1ccc(-c2cc3c(C)nc(N)nc3n([C@H]3CC[C@H](OCCO)CC3)c2=O)cn1` , what is its reported drug sensitivity score?
[A] 14.2

[Q] Recorded drug sensitivity score for `CCOc1ccc(-c2ccc(Cn3c(CC(C)(C)C(=O)O)c(SC(C)(C)C)c4cc(OCc5ccc(C)cn5)ccc43)cc2)cn1` , please?
[A] 1

[Q] Sample CC1=CC(=O)c2ccccc2C1=O [menadione] — what was its drug sensitivity score?
[A] 0

[Q] Endpoint output: drug sensitivity score of OCCN(CCO)c1nc(N2CCCCC2)c2nc(N(CCO)CCO)nc(N3CCCCC3)c2n1 [dipyridamole] . Value?
[A] 0

---

Test system: Calu-3
method description: cell viability relative to DMSO; higher = less toxic
condition details: 72 h; 10000 nM
Parameter cell viability: see the listing below.
Use % as the unit, but write only the number.

Completed entries (count: 5):
[Q] So what cell viability did CNCc1ccc(-c2cc(-c3nc(-c4ccc(S(=O)(=O)C(C)C)cc4)cnc3N)on2)cc1 [VE-822] get with Calu-3?
[A] 90

[Q] # value lookup — system Calu-3, readout cell viability, item OCCCNc1ccccc1 [3-anilinopropan-1-ol]
[A] 115

[Q] Query the reported cell viability for Calu-3; item: COc1cnc(NS(=O)(=O)c2ccc(N)cc2)nc1 [sulfameter]
[A] 105

[Q] Notebook entry, Calu-3 assay: cell viability of CCOC(=O)C1=C(N)Oc2ccc(Br)cc2C1C(C#N)C(=O)OCC (stereo unspecified) [HA-14-1] = ?
[A] 109

[Q] Form field - read-out: cell viability; system: Calu-3; submitted item: O=C(NC(NC(=S)Nc1ccc(F)c([N+](=O)[O-])c1)C(Cl)(Cl)Cl)C(c1ccccc1)c1ccccc1 (stereo unspecified) [CGK-733]
[A] 52.8

Next:
[Q] Record lookup: for Calu-3, what cell viability belongs to CCCCCCc1ccc(O)cc1O [hexylresorcinol] ?
[A] 99.7

[Q] Value wanted: cell viability (Calu-3) of entry `O=C(O)c1cc2cccc([N+](=O)[O-])c2[nH]1`
[A] 111

[Q] What cell viability appears in the records for this compound with Calu-3? c1coc(CNc2ncnc3[nH]cnc23)c1 [kinetin]
[A] 99.3

[Q] Can you look up cell viability on Calu-3 for C=C[C@]1(C)CC[C@@H](C(=C)C)C[C@H]1C(=C)C [beta-elemene] ?
[A] 102

[Q] Item N#Cc1ccc(NCCNCC(=O)N2CCC[C@H]2C#N)nc1 [NVP-DPP728] with Calu-3 - cell viability?
[A] 110

[Q] # get_value(readout= cell viability, system= Calu-3) for CCCCCNCC(N)=O [milacemide]
[A] 95

---

Test system: Caco-2
method description: drug sensitivity score (DSS) for viability; higher = more toxic; extreme values may be limits of the assay
condition details: 72 h
Form field: drug sensitivity score (one value per entry).
// return a plain number; no unit text

[Q] Give the reported drug sensitivity score for `O=C(O)C1CN(Cc2ccc(-c3nc4cc(Cc5ccccc5F)ccc4s3)c(F)c2)C1` (system: Caco-2).
[A] 0

[Q] Under Caco-2: drug sensitivity score value of `CC(C)(C)c1cc(C(=O)/C=C/c2ccc(C(=O)O)cc2)cc(C(C)(C)C)c1` ?
[A] 2.4

[Q] Request: drug sensitivity score, test system Caco-2, entry `CCCCCCCCCCCCCCCC(=O)C(F)(F)F`
[A] 0

[Q] Look up drug sensitivity score with Caco-2 for this compound: `CC(=O)[C@H]1CC[C@H]2[C@@H]3CC[C@H]4C[C@](C)(O)CC[C@]4(C)[C@H]3CC[C@]12C`
[A] 0

[Q] So what drug sensitivity score did `COC(=O)Nc1nc2cc(C(=O)c3cccs3)ccc2[nH]1` get with Caco-2?
[A] 11.8

More entries:
[Q] What value of drug sensitivity score on Caco-2 does `O=C(O)C(=O)Nc1cccc(-c2nnn[nH]2)c1` have?
[A] 0

[Q] Form: Entry = `NCCCCCCCCCCNS(=O)(=O)c1cccc2c(Cl)cccc12` | System = Caco-2 | drug sensitivity score = ____
[A] 0

[Q] Item `O=C(O)CNC(=O)c1ccccc1I` with Caco-2 - drug sensitivity score?
[A] 0

[Q] Please provide the recorded drug sensitivity score for CCCCCNCC(N)=O [milacemide] , tested on Caco-2.
[A] 0

[Q] Value wanted: drug sensitivity score (Caco-2) of entry `CNCc1ccc(-c2cc(-c3nc(-c4ccc(S(=O)(=O)C(C)C)cc4)cnc3N)on2)cc1`
[A] 3.9

---

Test system: U2OS
method description: cell viability relative to DMSO; higher = less toxic
condition details: 72 h; 1 nM
measured property: cell viability (%)
Give your result in % as a bare value.

Please review the following examples before continuing.
[Q] Please give the measured cell viability for this compound: `CC1=CC(=O)c2ccccc2C1=O`
[A] 95.4

[Q] Name the recorded cell viability for `CN(CCc1ccc(Cl)c(Cl)c1)CCN1CCCC1` .
[A] 97.4

[Q] // returns reported cell viability for input Cc1ncc(CO)c(/C=N/NC(=O)c2ccncc2)c1O [pyridoxal-isonicotinoyl-hydrazone]
[A] 95.8

[Q] Returns the measured cell viability for the input compound. Input: `Oc1ccc([C@H]2COc3cc(O)ccc3C2)cc1`
[A] 98.5

[Q] Dear colleague, I am looking for the recorded cell viability of the following compound: `C=CCNc1ncnc2ccc(Br)cc12`
[A] 101

Next:
[Q] Any idea what its cell viability is? The compound is `C=CC(=O)Nc1cc2c(Nc3ccc(F)c(Cl)c3)ncnc2cc1OCCCN1CCOCC1`
[A] 97.1

[Q] cell viability for `CCN1CCN(C(=O)N[C@@H](C(=O)N[C@@H]2C(=O)N3[C@@H]2SC(C)(C)[C@@H]3C(=O)O)c2ccccc2)C(=O)C1=O` ?
[A] 97

[Q] I'd like to know its cell viability. The compound in question is CN1C(=O)CC(c2ccccc2)C1=O (stereo not given) [phensuximide]
[A] 96.2

[Q] Need cell viability of `CCOC(=O)c1c(O)nc2cccc3c2c1-c1ccccc1C3=O` , thanks.
[A] 95.6

[Q] // cell viability lookup, key: `CCCSc1nc(N[C@@H]2C[C@H]2c2ccc(F)c(F)c2)c2nnn([C@@H]3C[C@H](OCCO)[C@@H](O)[C@H]3O)c2n1`
[A] 104

---

Test system: HepG2
method description: cell viability relative to DMSO; higher = less toxic
condition details: 72 h; 10000 nM
Catalogue of cell viability readings, one per entry.
All answers are understood in %, so give the number only.

[Q] // query cell viability value for entry `Cc1ccc(/C=C2\CNC/C(=C\c3ccc(C)cc3)C2=O)cc1`
[A] 12.4

[Q] For the molecule shown here, `COC(=O)Nc1nc2cc(C(=O)c3cccs3)ccc2[nH]1` , give the reported cell viability.
[A] 40.2

Next:
[Q] Quick one: cell viability for `Cc1cc(C)c2nc(-c3ccccn3)cc(C(=O)Nc3ccc(S(=O)(=O)Nc4onc(C)c4C)cc3)c2c1` ?
[A] 104

[Q] Given `CNC(=O)c1ccccc1Nc1cc(Nc2ccc(N3CCOCC3)cc2OC)ncc1C(F)(F)F` , state its recorded cell viability.
[A] 19.3

[Q] Field request: cell viability | item: `CCCCCn1cc(C(=O)NC23CC4CC(CC(C4)C2)C3)c(=O)c2cc(-c3ccccc3)ccc21`
[A] 92.1

[Q] Which value of cell viability has been reported for `CC(C)c1cc(CNc2nc(Nc3cc(C4CC4)[nH]n3)cc(N3CCN(C)CC3)n2)on1` in the records?
[A] 7.4

[Q] Requested read-out: cell viability. Entry: C[C@H](CCC(=O)O)[C@H]1CC[C@H]2[C@@H]3C(=O)C[C@@H]4CC(=O)CC[C@]4(C)[C@H]3CC(=O)[C@]12C [dehydrocholate-acid]
[A] 102

[Q] Bench note: what cell viability did `Cn1c(N2CCCCS2(=O)=O)nc(C(=O)NCc2ccc(F)cc2)c(O)c1=O` show?
[A] 46.9
